target: human TLR7 (Homo sapiens (Human), UniProt Q9NYK1); assay: TLR7 inhibition reporter assay (HEK-Blue SEAP); settings: HEK-Blue cells overexpressing human TLR7, gardiquimod 7.5 μM stimulation
Sequence (Q9NYK1 27-1049): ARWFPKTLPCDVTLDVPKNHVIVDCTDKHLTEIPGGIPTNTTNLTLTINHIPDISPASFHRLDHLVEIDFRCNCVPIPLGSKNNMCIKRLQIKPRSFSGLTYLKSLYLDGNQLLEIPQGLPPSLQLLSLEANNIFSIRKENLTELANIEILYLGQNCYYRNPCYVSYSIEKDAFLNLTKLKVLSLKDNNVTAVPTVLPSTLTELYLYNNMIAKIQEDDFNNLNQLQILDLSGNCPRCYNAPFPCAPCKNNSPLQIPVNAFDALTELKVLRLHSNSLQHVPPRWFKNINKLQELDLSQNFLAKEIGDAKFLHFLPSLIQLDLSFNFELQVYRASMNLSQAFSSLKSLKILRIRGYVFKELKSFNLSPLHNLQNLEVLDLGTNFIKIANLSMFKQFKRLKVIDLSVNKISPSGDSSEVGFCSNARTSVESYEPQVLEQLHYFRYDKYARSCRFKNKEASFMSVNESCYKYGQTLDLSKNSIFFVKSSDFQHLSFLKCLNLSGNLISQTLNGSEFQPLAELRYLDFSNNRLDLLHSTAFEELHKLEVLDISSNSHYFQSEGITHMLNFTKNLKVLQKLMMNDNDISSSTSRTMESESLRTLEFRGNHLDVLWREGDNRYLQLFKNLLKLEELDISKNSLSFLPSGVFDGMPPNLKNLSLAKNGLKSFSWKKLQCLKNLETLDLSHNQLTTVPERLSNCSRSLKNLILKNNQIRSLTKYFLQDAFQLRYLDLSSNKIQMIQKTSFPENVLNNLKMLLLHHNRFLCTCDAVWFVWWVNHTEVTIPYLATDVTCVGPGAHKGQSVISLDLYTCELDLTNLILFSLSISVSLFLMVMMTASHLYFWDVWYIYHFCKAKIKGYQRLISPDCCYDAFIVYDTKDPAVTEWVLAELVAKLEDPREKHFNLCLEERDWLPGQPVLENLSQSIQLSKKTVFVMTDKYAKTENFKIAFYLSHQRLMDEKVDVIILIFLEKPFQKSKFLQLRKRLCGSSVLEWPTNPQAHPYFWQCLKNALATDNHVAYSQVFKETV
Observed Property: IC50 (nM)

> print(dat)
                                   compound                               measured.on  observed.property  reported.value
1  CCCN1CCN(c2ncc3[nH]c(-c4cn5ncnc5c(C)c4C)c(C(C)C)c3c2F)[C@H](C)C1  human TLR7 (Homo sapiens (Human), UniProt Q9NYK1)               IC50            0.59
2  COc1cc(-c2[nH]c3cnc(N4CCC(NCC5(C)COC5)CC4)cc3c2C(C)C)cn2ncnc12  human TLR7 (Homo sapiens (Human), UniProt Q9NYK1)               IC50             2.1
3  Cc1c(-c2[nH]c3cnc(N4CCN(CC(=O)N5CCOCC5)C[C@H]4C)c(F)c3c2C(C)C)cn2ncnc2c1C  human TLR7 (Homo sapiens (Human), UniProt Q9NYK1)               IC50              13
4  Cc1c(-c2[nH]c3cnc(N4CCN(CC(C)(C)O)CC4)c(F)c3c2C(C)C)cn2ncnc2c1C  human TLR7 (Homo sapiens (Human), UniProt Q9NYK1)               IC50              30
5  COc1cc(-c2[nH]c3cnc(C4CCC(NC(C)C)CC4)c(F)c3c2C(C)C)cn2ncnc12 (stereo not shown) [Example 159]  human TLR7 (Homo sapiens (Human), UniProt Q9NYK1)               IC50             3.4
6  COC(C)(C)CNC1CCN(c2ncc3[nH]c(-c4cn5ncnc5c(C)c4C)c(C(C)C)c3c2C)CC1  human TLR7 (Homo sapiens (Human), UniProt Q9NYK1)               IC50             1.5

P = Cc1c(-c2[nH]c3cnc(N4CCC(NC5CCOCC5)CC4)c(F)c3c2C(C)C)cn2ncnc2c1C
Q = CNCC(=O)N1CCC(c2ncc3[nH]c(-c4cc(OC)c5ncnn5c4)c(C(C)C)c3c2C)CC1
### Prompt Rank P against Q by their IC50 values and give the higher one. Selection: enter the item's label.
### Response Q
(Q: 53 nM, P: 0.69 nM)

* * *

target: human TLR8 (Homo sapiens (Human), UniProt Q9NR97); assay: TLR8 inhibition reporter assay (HEK-Blue SEAP); conditions: read-out: TLR8 IC50; HEK-Blue cells overexpressing human TLR8, R848 15.9 μM stimulation, SEAP reporter
Sequence (Q9NR97 27-1041): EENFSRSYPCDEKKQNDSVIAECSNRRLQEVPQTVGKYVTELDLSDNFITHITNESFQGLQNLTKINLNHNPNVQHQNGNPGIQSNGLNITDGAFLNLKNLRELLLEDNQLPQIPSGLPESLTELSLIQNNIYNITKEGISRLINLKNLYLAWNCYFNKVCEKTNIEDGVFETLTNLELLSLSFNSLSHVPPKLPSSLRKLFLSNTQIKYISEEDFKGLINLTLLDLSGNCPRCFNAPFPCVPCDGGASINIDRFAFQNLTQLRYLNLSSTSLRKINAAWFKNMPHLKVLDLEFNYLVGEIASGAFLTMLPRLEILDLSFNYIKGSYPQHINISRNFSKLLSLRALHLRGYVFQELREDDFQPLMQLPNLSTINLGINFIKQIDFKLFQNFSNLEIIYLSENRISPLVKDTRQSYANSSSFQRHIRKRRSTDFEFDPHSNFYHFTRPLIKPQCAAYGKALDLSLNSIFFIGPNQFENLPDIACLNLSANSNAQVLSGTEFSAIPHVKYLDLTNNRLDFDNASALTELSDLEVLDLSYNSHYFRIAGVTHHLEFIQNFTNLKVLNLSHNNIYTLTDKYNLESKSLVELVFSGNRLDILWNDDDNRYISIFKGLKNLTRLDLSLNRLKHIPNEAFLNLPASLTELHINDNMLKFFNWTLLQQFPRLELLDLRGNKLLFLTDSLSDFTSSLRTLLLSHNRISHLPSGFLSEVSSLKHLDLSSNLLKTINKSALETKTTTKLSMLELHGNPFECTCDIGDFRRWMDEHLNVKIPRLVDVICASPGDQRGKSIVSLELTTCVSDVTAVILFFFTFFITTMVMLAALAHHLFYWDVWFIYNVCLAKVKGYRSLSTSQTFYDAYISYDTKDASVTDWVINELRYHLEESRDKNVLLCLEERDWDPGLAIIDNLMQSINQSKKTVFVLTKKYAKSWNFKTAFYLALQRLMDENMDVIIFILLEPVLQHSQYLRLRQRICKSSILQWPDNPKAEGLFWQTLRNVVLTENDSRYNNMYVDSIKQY
pIC50: −log10 of the molar value.
Observed Property: pIC50

Example entries begin here.
> print(dat)
                                   compound  reported.value
1  COc1cc(-c2[nH]c3cnc(C4CCC(NCC(C)(C)C)CC4)c(F)c3c2C(C)C)cn2ncnc12 (stereo not shown) [Example 162]            9.00
2  COc1cc(-c2[nH]c3cnc(C4CCN(CC(=O)N(C)C)CC4)c(F)c3c2C(C)C)cn2ncnc12 [Example 34]            8.70
3  COc1cc(-c2[nH]c3cnc(N4CCC(NCC(=O)N(C)C)CC4)cc3c2C(C)C)cn2ncnc12 [Example 333]            8.37
4  CNC(=O)CN1CCC(c2ncc3[nH]c(-c4cc(C)c5ncnn5c4)c(C(C)C)c3c2F)CC1 [Example 181]            8.30
5  Cc1c(-c2[nH]c3cnc(N4CCN(CC5CC5)CC4)c(F)c3c2C(C)C)cn2ncnc2c1C [Example 430]            9.57
6  Cc1c(-c2[nH]c3cnc(N4CCN(CC(N)=O)CC4)c(C)c3c2C(C)C)cn2ncnc2c1C [Example 414]            8.21

1 = COc1cc(-c2[nH]c3cnc(N4CCC(NC5COC5)CC4)c(F)c3c2C(C)C)cn2ncnc12 [Example 42]
2 = COc1cc(-c2[nH]c3cnc(C4CCC(N5CCC5)CC4)c(F)c3c2C(C)C)cn2ncnc12 (stereo not shown) [Example 46]
3 = CCN(C)C1CCC(c2ncc3[nH]c(-c4cn5ncnc5c(C)c4C)c(C(C)C)c3c2F)CC1 (stereo not shown) [Example 263]
4 = Cc1c(-c2[nH]c3cnc(C4CCC(NC5CCOCC5)CC4)c(F)c3c2C(C)C)cn2ncnc2c1C (stereo not shown) [Example 134]
### Prompt Exam item: list the entries in increasing order of pIC50. Give your ranking as a list of the labels in the requested order.
### Response 3, 2, 1, 4
(3: 8.39, 2: 8.80, 1: 9.23, 4: 9.57)

* * *

biological target: UniProt Q9NR96; test: TLR9 inhibition reporter assay (HEK-Blue SEAP); conditions: read-out: TLR9 IC50; HEK-Blue cells overexpressing human TLR9, ODN2006 5 nM stimulation, SEAP reporter;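 further: SEAP driven by IFN-β minimal promoter carrying five NF-κB and AP-1 sites, 22 h at 37 °C, compounds 0.05 nM–50 µM, inhibition scaled between agonist-plus-DMSO and reference-inhibitor wells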
Sequence (Q9NR96 26-1032): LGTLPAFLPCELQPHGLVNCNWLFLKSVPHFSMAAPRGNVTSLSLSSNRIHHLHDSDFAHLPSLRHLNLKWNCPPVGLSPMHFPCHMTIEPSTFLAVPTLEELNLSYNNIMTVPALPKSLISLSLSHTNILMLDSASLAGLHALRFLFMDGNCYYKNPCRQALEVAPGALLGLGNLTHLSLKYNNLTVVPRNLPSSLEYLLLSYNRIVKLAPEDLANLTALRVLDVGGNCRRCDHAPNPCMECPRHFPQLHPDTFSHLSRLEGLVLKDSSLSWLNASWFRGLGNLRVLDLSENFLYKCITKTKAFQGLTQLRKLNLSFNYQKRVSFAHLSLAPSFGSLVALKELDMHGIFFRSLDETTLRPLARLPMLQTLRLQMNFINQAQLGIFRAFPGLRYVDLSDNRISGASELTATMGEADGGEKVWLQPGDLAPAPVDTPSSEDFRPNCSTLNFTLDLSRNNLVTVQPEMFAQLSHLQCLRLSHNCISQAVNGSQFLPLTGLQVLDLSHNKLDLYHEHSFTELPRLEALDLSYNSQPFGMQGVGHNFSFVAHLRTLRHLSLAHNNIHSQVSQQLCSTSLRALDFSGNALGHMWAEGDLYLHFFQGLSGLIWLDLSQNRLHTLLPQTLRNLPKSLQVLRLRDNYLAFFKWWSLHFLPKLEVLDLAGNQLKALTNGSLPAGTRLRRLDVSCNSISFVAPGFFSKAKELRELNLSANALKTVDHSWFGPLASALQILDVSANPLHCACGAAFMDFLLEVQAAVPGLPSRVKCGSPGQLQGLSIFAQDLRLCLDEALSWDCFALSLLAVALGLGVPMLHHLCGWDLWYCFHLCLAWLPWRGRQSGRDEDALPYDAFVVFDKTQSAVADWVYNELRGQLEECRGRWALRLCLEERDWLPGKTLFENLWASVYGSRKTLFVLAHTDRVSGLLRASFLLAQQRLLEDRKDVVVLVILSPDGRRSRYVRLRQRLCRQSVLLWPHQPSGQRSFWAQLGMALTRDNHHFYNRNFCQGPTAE
Observed Property: IC50 (µM)

> print(dat)
                                   molecule     measured.on  observed.property  reported.value
1  Cc1cc(-c2[nH]c3cnc(C4CCC(N5CCC5)CC4)c(F)c3c2C(C)C)cn2ncnc12 (stereo not shown) [Example 262]  UniProt Q9NR96               IC50            1.33

A = COc1cc(-c2[nH]c3cnc(N4CCC(NC5COC5)CC4)c(C)c3c2C(C)C)cn2ncnc12
B = COc1cc(-c2[nH]c3cnc(C4CCC(NCC(C)(C)C)CC4)c(F)c3c2C(C)C)cn2ncnc12 (stereo not shown)
C = COCCN1CCN(c2ncc3[nH]c(-c4cc(OC)c5ncnn5c4)c(C(C)C)c3c2F)CC1
D = COc1cc(-c2[nH]c3cnc(C4CCC(N5CC6(COC6)C5)C4)cc3c2C(C)C)cn2ncnc12 (stereo not shown) [Example 141]
E = COc1cc(-c2[nH]c3cnc(C4CCC(N(C)C(C)C)CC4)c(F)c3c2C(C)C)cn2ncnc12 (stereo not shown)
### Prompt Sort by IC50, descending. Give your ranking as a list of the labels in the requested order.
### Response C, A, B, E, D
(C: 4.85 µM, A: 3.16 µM, B: 2.15 µM, E: 0.959 µM, D: 0.482 µM)

* * *

target: human TLR8 (Homo sapiens (Human), UniProt Q9NR97); assay: TLR8 inhibition reporter assay (HEK-Blue SEAP); conditions: read-out: TLR8 IC50; HEK-Blue cells overexpressing human TLR8, R848 15.9 μM stimulation, SEAP reporter;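 further: SEAP driven by IFN-β minimal promoter with five NF-κB and AP-1 sites, compounds tested 0.05 nM to 50 µM, 22 h incubation, inhibition relative to agonist plus DMSO wells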
Observed Property: IC50 (nM)

> print(dat)
                                   compound                               measured.on  observed.property  result.unit  reported.value
1  Cc1c(-c2[nH]c3cnc(N4CCC(N5CCC5)CC4)c(F)c3c2C(C)C)cn2ncnc2c1C  human TLR8 (Homo sapiens (Human), UniProt Q9NR97)               IC50           nM            0.58
2  COc1cc(-c2[nH]c3cnc(N4CC5(C4)CN(C4CCN(C(C)C)CC4)C5)c(F)c3c2C(C)C)cn2ncnc12  human TLR8 (Homo sapiens (Human), UniProt Q9NR97)               IC50           nM              16
3  COc1cc(-c2[nH]c3cnc(C4CCC(NCC5(C)COC5)CC4)c(F)c3c2C(C)C)cn2ncnc12 (centres unmarked)  human TLR8 (Homo sapiens (Human), UniProt Q9NR97)               IC50           nM             0.4

A = CNC(=O)CN1CCC(c2ncc3[nH]c(-c4cc(OC)c5ncnn5c4)c(C(C)C)c3c2C)CC1
B = Cc1c(N2CCC(NCC(C)(C)O)CC2)ncc2[nH]c(-c3cc(C)c4ncnn4c3)c(C(C)C)c12
C = Cc1cc(-c2[nH]c3cnc(C4CCNCC4)c(F)c3c2C(C)C)cn2ncnc12
D = COc1cc(-c2[nH]c3cnc(C4CCN(C(=O)CN(C)C)CC4)c(C)c3c2C(C)C)cn2ncnc12
E = COc1cc(-c2[nH]c3cnc(N4CC5(CN(C)C5)C4)c(F)c3c2C(C)C)cn2ncnc12
### Prompt Sort by IC50, descending. Give your ranking as a list of the labels in the requested order.
### Response D, A, C, E, B

* * *

molecular target: human TLR7 (Homo sapiens (Human), UniProt Q9NYK1); assay: TLR7 inhibition reporter assay (HEK-Blue SEAP); format: cell-based; conditions: HEK-Blue cells overexpressing human TLR7, gardiquimod 7.5 μM stimulation
Observed Property: IC50 (nM)

> print(dat)
                                   compound                               measured.on  reported.value
1  COc1cc(-c2[nH]c3cnc(N4CC5(CN(CCS(C)(=O)=O)C5)C4)c(F)c3c2C(C)C)cn2ncnc12  human TLR7 (Homo sapiens (Human), UniProt Q9NYK1)              21
2  COc1cc(-c2[nH]c3cnc(C4CCC(N5CC6(COC6)C5)CC4)c(C)c3c2C(C)C)cn2ncnc12 (centres unmarked) [Example 245]  human TLR7 (Homo sapiens (Human), UniProt Q9NYK1)             6.3
3  Cc1c(-c2[nH]c3cnc(C4CCN(CC(=O)N(C)C)CC4)c(F)c3c2C(C)C)cn2ncnc2c1C  human TLR7 (Homo sapiens (Human), UniProt Q9NYK1)             6.2

P = Cc1cc(-c2[nH]c3cnc(C4CCC(NC(C)C)CC4)c(F)c3c2C(C)C)cn2ncnc12 (centres unmarked) [Example 230]
Q = Cc1c(-c2[nH]c3cnc(N4CCN(C(=O)CN(C)C)C[C@H]4C)c(F)c3c2C(C)C)cn2ncnc2c1C
### Prompt I'm curious, which of these has a smaller IC50 number: P or Q ? Selection: enter the item's label.
### Response P
